Measured values drawn from paper PMC5042352 for this set.

# protocol: Stability of the analytes in human plasma at QC levels
# Assay type: in vitro ADME
# conditionSummary: high QC; 40 days, −40 °C; human plasma; n = 5
Can you tell me Long-term Dev. (%) for the items I'm about to list?
Give bare numbers, in %.

Consider the reported Long-term Dev. (%) for these molecules:
CCC(=O)O[C@]1(C(=O)CO)[C@@H](C)C[C@H]2[C@@H]3CCC4=CC(=O)C=C[C@]4(C)[C@@]3(F)[C@@H](O)C[C@@]21C [B17P, betamethasone 17-monopropionate]; 10.5
CCC(=O)OCC(=O)[C@@]1(O)[C@@H](C)C[C@H]2[C@@H]3CCC4=CC(=O)C=C[C@]4(C)[C@@]3(F)[C@@H](O)C[C@@]21C [B21P, betamethasone 21-monopropionate]; −9.13
CCC(=O)OCC(=O)[C@@]1(OC(=O)CC)[C@@H](C)C[C@H]2[C@@H]3CCC4=CC(=O)C=C[C@]4(C)[C@@]3(F)[C@@H](O)C[C@@]21C [BDP, betamethasone dipropionate]; 4.01
C[C@H]1C[C@H]2[C@@H]3CCC4=CC(=O)C=C[C@]4(C)[C@@]3(F)[C@@H](O)C[C@]2(C)[C@@]1(O)C(=O)COP(=O)([O-])[O-].[Na+].[Na+] [BSP, betamethasone sodium phosphate]; −1.02

Value of Long-term Dev. (%) reported for the molecule "C[C@H]1C[C@H]2[C@@H]3CCC4=CC(=O)C=C[C@]4(C)[C@@]3(F)[C@@H](O)C[C@]2(C)[C@@]1(O)C(=O)CO" is −12.3
